B1: COUP transcription factor 1, residues 83 to 159; numbered along this chain, P10589 (parent)
chain: HIECVVCGDKSSGKHYGQFTCEGCKSFFKRSVRRNLTYTCRANRNCPIDQHHRNQCQYCRLKKCLKVGMRREAVQRG

Variants of: B1
method: abundance fitness (aPCA) (normalised: wild type 0, dead -1); higher = more abundant; growth selection in yeast, the domain comes from the species named
study_conditions: Homo sapiens
Measured abundance fitness by item
Output spec: single numeric token, no unit.

- G68Q: -0.731
- G17I: -0.515

Task: Which abundance fitness value belongs to `C64K` ?
Output: -0.866

Task: Check `K62P` too.
Output: -0.573

Task: Check `R76S` too.
Output: -0.048
